Every entry's value here was drawn from patent US9346809B2.

- study_target: JAK2 (catalytic domain, His-tag) (Homo sapiens, UniProt O60674)
- Construct: All four purified enzymes contain only the catalytic domain; His (N); purchased Carna Biosciences, Inc; host or cells: baculovirus expression system
- Sequence (O60674 849-1124 limits assumed): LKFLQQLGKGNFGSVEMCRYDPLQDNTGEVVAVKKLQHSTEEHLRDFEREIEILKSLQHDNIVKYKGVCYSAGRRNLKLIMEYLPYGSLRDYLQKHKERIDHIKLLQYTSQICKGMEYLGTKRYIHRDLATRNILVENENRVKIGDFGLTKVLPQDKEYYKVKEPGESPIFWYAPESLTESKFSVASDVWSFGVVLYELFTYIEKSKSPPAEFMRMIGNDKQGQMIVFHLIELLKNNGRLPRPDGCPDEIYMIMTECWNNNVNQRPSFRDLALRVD
- assay_info: JAK kinase assay (HTRF, phosphorylation of TK substrate-biotin), JAK2
- Type: biochemical
- condition_notes: ATP at Km (4 μM); read-out: JAK2 kinase inhibitory activity (EC50 indicator)
Overview of reported EC50 across a group of molecules:

// below: answered molecules
# molecule, EC50
rows = [
    ("Cc1c[nH]c2ncnc(N3CCN(C(=O)c4ccc(C#N)cc4)C4(CC4)C3)c12 [Example 118]", "> 500 nM"),
    ("Cc1ccc(C(=O)N2C3CCC2CN(c2ncnc4[nH]ccc24)C3)cc1S(N)(=O)=O [Example 138]", "< 100 nM"),
    ("Cn1cc(S(N)(=O)=O)cc1C(=O)N1CCN(c2ncnc3[nH]ccc23)CC12CC2 [Example 188]", "< 100 nM"),
    ("O=C1OCCC1NC(=S)N1[C@@H]2CC[C@H]1CN(c1ncnc3[nH]ccc13)C2 (stereo partly drawn) [Example 47]", "100 to 500 nM"),
    ("CCCS(=O)(=O)N1[C@@H]2CC[C@H]1CN(c1ncnc3[nH]ccc13)C2 [Example 51]", "100 to 500 nM"),
]

Query: Tell me the measured EC50 of NS(=O)(=O)c1ccc(CC(=O)N2CCN(c3ncnc4[nH]ccc34)CC23CC3)s1 [Example 195] , please.
Reply: < 100 nM

Query: # EC50 lookup, item O=C(c1cc2cc(F)cc(F)c2[nH]1)N1CCN(c2ncnc3[nH]ccc23)CC12CC2 [Example 192]
Reply: < 100 nM

Query: Look up EC50 for this molecule: N#Cc1ccc(CC(=O)N2CCN(c3nc(NC(=O)c4ccccc4)nc4[nH]ccc34)CC23CC3)cc1 [Example 98]
Reply: > 500 nM

Query: Any idea what EC50 was measured for Cn1c(C(=O)N2C3CCC2CN(c2ncnc4[nH]ccc24)C3)ccc1S(N)(=O)=O [Example 141] ?
Reply: < 100 nM

Query: Can you look up the measured EC50 of NS(=O)(=O)c1ccc(C(=O)N2CCN(c3ncnc4[nH]ccc34)CC23CC3)cc1Cl [Example 103] for me?
Reply: < 100 nM

Query: Need EC50, item N#CC1(C(=O)N2CCN(c3ncnc4[nH]ccc34)CC23CC3)CC1 [Example 165]
Reply: < 100 nM

Query: What does the record list as EC50 for CC1CN(C(=O)C2(C#N)CC2)C2(CC2)CN1c1ncnc2[nH]ccc12 (stereo not drawn) [Example 149] ?
Reply: < 100 nM

Query: Could you share which EC50 value was measured for N#Cc1cccc(CC(=O)N2CCN(c3ncnc4[nH]ccc34)CC23CC3)c1 [Example 25] ?
Reply: < 100 nM

###

- study_target: JAK1 (aa 850-1154, catalytic domain, GST-tag) (Homo sapiens, UniProt P23458)
- Construct: JAK1 (aa 850-1154) and TYK2 (aa 871-1187) are expressed with an N-terminally fused GST-tag; GST (N); purchased Carna Biosciences, Inc; host or cells: baculovirus expression system
- Sequence (P23458 850-1154): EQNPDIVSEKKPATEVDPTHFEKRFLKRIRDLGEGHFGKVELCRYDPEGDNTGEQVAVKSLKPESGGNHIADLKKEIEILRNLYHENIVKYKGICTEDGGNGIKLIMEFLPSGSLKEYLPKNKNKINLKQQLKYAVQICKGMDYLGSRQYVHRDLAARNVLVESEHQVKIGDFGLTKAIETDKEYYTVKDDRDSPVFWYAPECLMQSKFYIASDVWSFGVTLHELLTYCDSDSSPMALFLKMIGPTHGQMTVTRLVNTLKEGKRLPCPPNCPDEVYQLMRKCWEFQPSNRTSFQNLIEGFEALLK
- assay_info: JAK kinase assay (HTRF, phosphorylation of TK substrate-biotin), JAK1
- Type: biochemical
- condition_notes: ATP at Km (7 μM); read-out: JAK1 kinase inhibitory activity (EC50 indicator)
pEC50: −log10 of the molar value.
Each entry below carries its reported pEC50.

Field: example entries. Status: answers known.
# molecule, pEC50
records = [
    ("CS(=O)(=O)NCCC(=O)N1[C@@H]2CC[C@@H]1CN(c1ncnc3[nH]ccc13)C2", "6.30 to 7.00"),
    ("CC(=O)N1CCCC1C(=O)N1CCN(c2ncnc3[nH]ccc23)CC12CC2 (centres unmarked)", "< 6.30"),
    ("O=C(CC(F)(F)F)N1CCN(c2ncnc3[nH]ccc23)CC12CC2", "> 7.00"),
    ("O=C(c1ccc(C(F)(F)F)cc1)N1[C@@H]2CC[C@H]1CN(c1ncnc3[nH]ccc13)C2", "> 7.00"),
    ("O=C(c1cnc2ccccc2c1)N1CCN(c2ncnc3[nH]ccc23)CC12CC2", "> 7.00"),
]

Query: State its pEC50 on JAK1 (aa 850-1154, catalytic domain, GST-tag) (Homo sapiens, UniProt P23458): "O=C(c1ccc(S(=O)(=O)NCc2cccs2)cc1)N1CCN(c2ncnc3[nH]ccc23)CC12CC2"
Reply: > 7.00

Query: Kindly state the measured pEC50 obtained for "NS(=O)(=O)c1ccc(C(=O)N2CCN(c3ncnc4[nH]ccc34)CC23CC3)cc1Cl" with JAK1 (aa 850-1154, catalytic domain, GST-tag) (Homo sapiens, UniProt P23458).
Reply: > 7.00

Query: Please tell me: pEC50 of "NS(=O)(=O)c1cc(OCC(=O)N2C3CCC2CN(c2ncnc4[nH]ccc24)C3)ccc1Cl" , system JAK1 (aa 850-1154, catalytic domain, GST-tag) (Homo sapiens, UniProt P23458)?
Reply: > 7.00

###

- study_target: JAK3 (catalytic domain, His-tag) (Homo sapiens, UniProt P52333)
- Construct: All four purified enzymes contain only the catalytic domain; His (N); purchased Carna Biosciences, Inc; host or cells: baculovirus expression system
- Sequence (P52333 822-1111 limits assumed): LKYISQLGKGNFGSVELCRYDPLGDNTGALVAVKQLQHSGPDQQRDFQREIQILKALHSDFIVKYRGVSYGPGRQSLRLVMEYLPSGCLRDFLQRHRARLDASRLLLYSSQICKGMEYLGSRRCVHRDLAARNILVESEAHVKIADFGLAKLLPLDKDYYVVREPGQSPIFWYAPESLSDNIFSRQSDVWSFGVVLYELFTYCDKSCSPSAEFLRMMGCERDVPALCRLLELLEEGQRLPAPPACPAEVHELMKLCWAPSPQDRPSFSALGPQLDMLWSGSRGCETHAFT
- assay_info: JAK kinase assay (HTRF, phosphorylation of TK substrate-biotin), JAK3
- Type: biochemical
- condition_notes: HTRF assay, ATP at Km (2 μM); read-out: JAK3 kinase inhibitory activity (EC50 indicator)
pEC50: −log10 of the molar value.
measurement_name: pEC50

# compound, study_target, pEC50
rows = [
    ("COc1cnc2[nH]ccc2c1N1CCN(C(=O)c2ccc(C#N)cc2)C2(CC2)C1 [Example 286]", "JAK3 (catalytic domain, His-tag) (Homo sapiens, UniProt P52333)", "< 6.30"),
]

Query: Reported pEC50, compound CS(=O)(=O)c1ccc(C(=O)N2CCN(c3ncnc4[nH]ccc34)CC23CC3)c(Cl)c1 [Example 382] : ____
Reply: < 6.30

Query: Dear colleague, I am looking for the recorded pEC50 of the following compound: O=C(c1cc2ccc(F)cc2[nH]1)N1CCN(c2ncnc3[nH]ccc23)CC12CC2 [Example 363]
Reply: > 7.00

Query: Looking for the measured pEC50 of N#Cc1ccccc1C(=O)N1CCN(c2ccnc3[nH]ccc23)CC12CC2 [Example 235] , can you help?
Reply: < 6.30

Query: Quick one: pEC50 for COc1cc(S(N)(=O)=O)ccc1C(=O)N1CCN(c2ncnc3[nH]ccc23)CC12CC2 [Example 389] ?
Reply: > 7.00

Query: I have this compound here, Cc1ccc(CNS(=O)(=O)c2ccc(C(=O)N3CCN(c4ncnc5[nH]ccc45)CC34CC4)cc2)o1 [Example 427] , and I need its recorded pEC50.
Reply: > 7.00

Query: So what does the record say about pEC50 for Nc1nc(N2CCN(C(=O)c3cnc4ccccc4n3)C3(CC3)C2)c2cc[nH]c2n1 [Example 305] ?
Reply: 6.30 to 7.00

Query: Return reported pEC50; argument: Cc1ccsc1C(=O)N1[C@@H]2CC[C@@H]1CN(c1ncnc3[nH]ccc13)C2 [Example 243]
Reply: 6.30 to 7.00

Query: Using the record for O=C(c1cccc(OC(F)(F)F)c1)N1CCN(c2ccnc3[nH]ccc23)CC12CC2 [Example 229] , report its pEC50.
Reply: < 6.30

Query: Any idea what pEC50 was measured for CS(=O)(=O)c1ccc(C(=O)N2CCN(c3ncnc4[nH]ccc34)CC23CC3)cc1 [Example 364] ?
Reply: 6.30 to 7.00

Query: May I ask what pEC50 has been recorded for CS(=O)(=O)c1ccc2[nH]c(C(=O)N3CCN(c4ncnc5[nH]ccc45)CC34CC4)cc2c1 [Example 365] ?
Reply: > 7.00

Query: Entry Cc1c[nH]c2ncnc(N3CCN(C(=O)Cc4cccc(C#N)c4)C4(CC4)C3)c12 [Example 333] has what pEC50?
Reply: < 6.30

Query: Tell me the measured pEC50 of N#CCC(=O)N1CCN(c2ccnc3[nH]ccc23)CC12CC2 [Example 220] , please.
Reply: 6.30 to 7.00

Query: Fill in: pEC50 of COc1ncccc1C(=O)N1CCN(c2ncnc3[nH]ccc23)CC12CC2 [Example 216] is ___
Reply: < 6.30

Query: Recorded pEC50 for COC(=O)c1cc2c(N3CCN(C(=O)CCCC#N)C4(CC4)C3)ncnc2[nH]1 [Example 339] , please?
Reply: < 6.30

Query: Can you share its pEC50? I mean this compound: NS(=O)(=O)c1ccc(C(=O)N2[C@@H]3CC[C@@H]2CN(c2ncnc4[nH]ccc24)C3)cc1 [Example 353]
Reply: > 7.00
